# TEST_PROTOCOL: Resazurin cytotoxicity assay on Caco-2 cells
# Assay type: cell-based, human
# MEASUREMENT_CONTEXT: human, after 3 h, read-out: cell viability
PROPERTY_MEASURED: viability at 3 h, 0.5 % (m/v)

Dear colleague, please send me the reported viability at 3 h, 0.5 % (m/v) for O[C@@H]1[C@@H](O)[C@H]2O[C@H]3[C@H](O)[C@@H](O)[C@@H](O[C@H]4[C@H](O)[C@@H](O)[C@@H](O[C@H]5[C@H](O)[C@@H](O)[C@@H](O[C@H]6[C@H](O)[C@@H](O)[C@@H](O[C@H]7[C@H](O)[C@@H](O)[C@@H](O[C@@H]1[C@@H](CS)O2)O[C@@H]7CS)O[C@@H]6CS)O[C@@H]5CS)O[C@@H]4CS)O[C@@H]3CS [per-6-thiolated α-CD, per-6-thiolated α-cyclodextrin] when you can.
> 88%
